- EXPERIMENTAL DETAILS: chemical genetic growth profiling, strain panel (AID 1159580);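 also: tested at 20 µM; growth read once vehicle control cultures reached saturation at 30 °C; 1 = growth at the plate median or of vehicle wells; lower values mean less growth of the strain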
- MEASUREMENT PARAMETERS: S. cerevisiae deletion strains, growth OD, locus YDR162C, strain NBP2, hits give low values
Among all 5,500 compounds or so, about 2,000 (36%) were called active. About 18% were inconclusive and are not listed. This is one part of the list.
RECORDED ENDPOINT: normalized growth
Give bare numbers.

Solved cases (2 shown):
MOLECULE	RECORDED ENDPOINT	REPORTED MEASUREMENT
COc1ccc(-c2coc3cc(O)ccc3c2=O)c(OC)c1O	normalized growth	0.966
Oc1cc(O)c2c(c1)O[C@H](c1cc(O)c(O)c(O)c1)[C@H](O)C2	normalized growth	1.02

Provide normalized growth for all items below, preserving their order.
1. CC[C@@]1(O)C[C@H](O[C@H]2C[C@H](N(C)C)[C@H](O)[C@H](C)O2)c2c(cc3c(c2O)C(=O)c2c(O)ccc(O)c2C3=O)[C@H]1C(=O)OC
2. COc1ccc(-c2coc3cc(O)ccc3c2=O)c(OC)c1
3. COc1ccc(-c2coc3cc(OC)ccc3c2=O)cc1
4. CCC1(O)CC(OC2CC(N(C)C)C(OC3CC(O)C(OC4CCC(=O)C(C)O4)C(C)O3)C(C)O2)c2c(cc3c(c2O)C(=O)c2c(O)cccc2C3=O)C1C(=O)OC (stereo not drawn)

1. 0.0578
2. 0.937
3. 0.607
4. 0.981

Provide normalized growth for all items below, preserving their order.
1. CCC(C)C(=O)OC1CC2(C)C(c3ccoc3)OC(=O)CC23OC2(C)OC34C(OC(=O)C(C)C)C3(O)C(OC(=O)C5(C)OC5C)C5(C)CC3(O)C(C)(C5C(=O)OC)C14O2 (stereo not drawn)
2. CC[C@@]1(O)C[C@H](O[C@H]2C[C@H](N(C)C)[C@H](O)[C@H](C)O2)c2c(cc3c(c2O)C(=O)c2c(O)cccc2C3=O)[C@H]1C(=O)OC

1: 0.996; 2: 0.595

---

Task for the reader: assign each of the following molecules its reported normalized growth.
- EXPERIMENTAL DETAILS: chemical genetic growth profiling, strain panel (AID 1159580);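 also: tested at 20 µM; growth read once vehicle control cultures reached saturation at 30 °C; 1 = growth at the plate median or of vehicle wells; lower values mean less growth of the strain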
- MEASUREMENT PARAMETERS: S. cerevisiae deletion strains, growth OD, locus YOR270C, strain vph1, hits give low values
Among all 5,500 compounds or so, about 2,000 (36%) were called active. Another 18% or so got no clear call; they are omitted. This is one part of the list.

Solved cases (2 shown):
MOLECULE	normalized growth
O=C(O[C@@H]1Cc2c(O)cc(O)cc2O[C@@H]1c1ccc(O)c(O)c1)c1cc(O)c(O)c(O)c1	0.923 (inactive)
COc1ccc2c(c1)OC1(O)COc3cc(OC)c(OC)cc3C1=C2 (stereo not drawn)	0.904 (inactive)

Kindly review the next molecule as well.
Which value of normalized growth has been reported for `CC[C@@H]1C=C/C=C/C[C@H](C)[C@@H](O)[C@](C)(O)C(=O)[C@H](C)[C@@H](O)[C@H](C)C(=O)[C@H](C)[C@@H](O)[C@H](C)/C=C/C(=O)O[C@H]2[C@@H](C)[C@@H](CC1)O[C@@]1(CC[C@@H](C)[C@@H](C[C@H](C)O)O1)[C@@H]2C` in the records?
0.914 (inactive)
